tgt: furin, P09958
Sequence (P09958 whole entry): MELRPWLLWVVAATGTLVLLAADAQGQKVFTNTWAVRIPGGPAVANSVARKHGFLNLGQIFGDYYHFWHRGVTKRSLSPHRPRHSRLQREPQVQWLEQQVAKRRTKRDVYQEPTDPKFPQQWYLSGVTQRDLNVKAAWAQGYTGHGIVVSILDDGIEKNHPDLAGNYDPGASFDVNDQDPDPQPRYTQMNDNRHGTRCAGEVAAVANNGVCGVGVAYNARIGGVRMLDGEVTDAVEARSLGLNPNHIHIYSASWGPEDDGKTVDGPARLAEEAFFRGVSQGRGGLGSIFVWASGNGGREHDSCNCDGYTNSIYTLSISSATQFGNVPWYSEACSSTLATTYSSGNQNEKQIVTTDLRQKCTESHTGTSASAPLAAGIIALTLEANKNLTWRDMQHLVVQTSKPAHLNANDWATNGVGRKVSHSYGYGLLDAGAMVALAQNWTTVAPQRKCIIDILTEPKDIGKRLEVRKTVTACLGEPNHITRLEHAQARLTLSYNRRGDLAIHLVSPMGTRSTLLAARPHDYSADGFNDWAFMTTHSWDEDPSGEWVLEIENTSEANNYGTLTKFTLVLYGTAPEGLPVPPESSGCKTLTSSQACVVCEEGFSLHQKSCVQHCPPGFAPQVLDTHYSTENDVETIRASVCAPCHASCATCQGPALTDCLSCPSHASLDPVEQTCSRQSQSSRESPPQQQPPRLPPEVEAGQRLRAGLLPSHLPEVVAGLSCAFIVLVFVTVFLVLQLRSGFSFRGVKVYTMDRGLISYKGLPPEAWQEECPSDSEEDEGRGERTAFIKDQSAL
assay-procedure: furin cleavage Z-score vs untreated control; higher = more cleavage, active = 3.5 or more, inactive = 1 or less, 8 variable residues between constant flanks;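 further: purified furin at 1:10 enzyme:substrate in 50 mM HEPES pH 7.5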
measurement-parameters: 7.5 min
Some of the results follow. The true hit rate is not given.
measured-quantity: furin cleavage Z-score
Numbers only.

Example results:
item-sequence	measured-quantity	reported-value
CARYRRVAEGAGNASASA [FS-1980]	furin cleavage Z-score	3.4
CANPARDDRSAGNASASA [FS-946]	furin cleavage Z-score	1.25
CARKYRSHHDAGNASASA [FS-2428]	furin cleavage Z-score	1.45
CARYRRGFIHAGNASASA [FS-1810]	furin cleavage Z-score	1.59

Lookup: Please report the recorded furin cleavage Z-score for CASTVRSLRSAGNASASA [FS-566] .
Found: 2.72
